Assay: Determined the solubility of the compound
Format: ADME
Conditions: read-out: S
value_kind: solubility (µM)
Answer in µM, number only, no unit symbol.

Qu. Form field: reported solubility of "Nc1nccc(-c2csc(COc3ccc(Cl)cc3)n2)n1"
Ans. 25
